# Target Entity: human Her3 receptor on cells (T47D, MCF7) (human, UniProt P21860 20-1342)
# Sequence (P21860 20-1342 limits assumed, stated change not applied): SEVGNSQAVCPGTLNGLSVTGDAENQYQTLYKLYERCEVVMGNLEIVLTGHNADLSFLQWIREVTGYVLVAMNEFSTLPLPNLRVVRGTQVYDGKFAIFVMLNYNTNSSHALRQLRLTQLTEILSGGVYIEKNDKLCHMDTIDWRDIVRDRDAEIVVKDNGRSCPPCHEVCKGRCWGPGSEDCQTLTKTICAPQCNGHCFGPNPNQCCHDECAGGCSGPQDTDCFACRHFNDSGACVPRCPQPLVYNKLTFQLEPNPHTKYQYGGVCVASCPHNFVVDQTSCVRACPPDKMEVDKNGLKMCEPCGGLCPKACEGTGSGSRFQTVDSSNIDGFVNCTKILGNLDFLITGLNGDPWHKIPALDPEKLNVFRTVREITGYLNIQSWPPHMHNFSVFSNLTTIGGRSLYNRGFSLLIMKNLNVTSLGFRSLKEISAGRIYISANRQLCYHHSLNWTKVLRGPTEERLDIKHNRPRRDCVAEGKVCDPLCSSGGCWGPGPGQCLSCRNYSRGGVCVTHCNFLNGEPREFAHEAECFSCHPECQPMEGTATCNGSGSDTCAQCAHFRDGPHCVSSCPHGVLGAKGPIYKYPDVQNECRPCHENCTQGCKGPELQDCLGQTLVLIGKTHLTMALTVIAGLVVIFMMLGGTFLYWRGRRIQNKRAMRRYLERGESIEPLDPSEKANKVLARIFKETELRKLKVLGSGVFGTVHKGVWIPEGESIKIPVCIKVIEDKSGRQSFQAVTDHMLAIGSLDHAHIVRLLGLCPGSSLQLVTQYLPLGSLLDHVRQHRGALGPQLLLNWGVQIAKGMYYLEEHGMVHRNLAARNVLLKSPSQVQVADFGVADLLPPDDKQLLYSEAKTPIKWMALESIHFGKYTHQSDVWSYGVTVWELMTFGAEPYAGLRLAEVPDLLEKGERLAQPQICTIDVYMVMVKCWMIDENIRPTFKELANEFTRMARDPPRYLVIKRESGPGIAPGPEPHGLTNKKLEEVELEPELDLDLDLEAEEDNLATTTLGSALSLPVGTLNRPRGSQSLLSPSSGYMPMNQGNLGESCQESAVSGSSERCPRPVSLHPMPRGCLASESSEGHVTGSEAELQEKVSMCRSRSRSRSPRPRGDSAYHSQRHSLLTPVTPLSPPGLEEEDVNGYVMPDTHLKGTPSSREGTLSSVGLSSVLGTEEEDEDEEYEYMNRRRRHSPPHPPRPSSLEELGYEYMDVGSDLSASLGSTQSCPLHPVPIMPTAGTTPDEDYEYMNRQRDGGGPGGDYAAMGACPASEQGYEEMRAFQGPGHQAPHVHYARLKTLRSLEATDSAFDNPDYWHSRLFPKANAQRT
# Assay Text: cell-based or functional assay
Readout Label: IC50 of inhibition of pHer3 (MCF7 cells stimulated with rhNRG1-β1, ELISA) (nM)
Reply numerically in nM, unit not repeated.

Please review the entries below; each comes with its answer.
IC50 of inhibition of pHer3 (MCF7 cells stimulated with rhNRG1-β1, ELISA) recorded for this binder, 588E10 (antibody, V domains shown, Purified mouse IgG from a hybridoma; also called 588E10-HC; 588E10-LC) VH: EVQLQQSGPKLVGPGESVKISCKGSGYTFTDYGMHWVKQSHAKRLEWIGVITIYDGHTNYNQNFKGKAALTVDKSSNTAYLELARMTSEDSAIYYCARGDYDLFWYLDVWGAGTTLTVSS VL: DVVMTQTPLSLTVSLGDQASISCRSSQNIKHSDGNTYLEWYLQKPGQSPKLLIYKVSNRFSGVPDRFSGSGSGTDFTLKISRVEAEDLGVYFCFQGSHVPLTFGAGTKLELKR , is 0.09

IC50 of inhibition of pHer3 (MCF7 cells stimulated with rhNRG1-β1, ELISA) recorded for this binder, 588E14 (antibody, V domains shown, Purified mouse IgG from a hybridoma; also called 588E14-HC; 588E14-LC) VH: EVQLQQSGPELVGPGESVKISCKGSGYAFTDYGMHWVKQSHAKRLEWIGVITIYDGHTNYNQNFKGKAALTVDKSSNTAYLELARMTSEDSAIYYCARGDYDLFWYLDVWGAGTSVTVSS VL: DIVMTQTPLSLTVSLGDQASISCRSSQNIKHSDGNTYLEWYLQKPGQSPKLLIYKVSNRFSGVPDRFSGSGSGTDFTLKISRVEAEDLGVYFCFQGSHVPLTFGAGTKLELKR , is 0.07

Further cases:
IC50 of inhibition of pHer3 (MCF7 cells stimulated with rhNRG1-β1, ELISA) recorded for this binder, 588E22 (antibody, V domains shown, Purified mouse IgG from a hybridoma; also called 588E22-HC; 588E22-LC) VH: DVQLQESGPELVGPGESVKISCKGSGYTFTDYGMHWVKQSHAKRLEWIGVITIYDGHTNYNQNFKGKAALTVDKSSNTAYPELARMTSEDSAIYYCARGDYDLFWYLDVWGAGTTVTVSS VL: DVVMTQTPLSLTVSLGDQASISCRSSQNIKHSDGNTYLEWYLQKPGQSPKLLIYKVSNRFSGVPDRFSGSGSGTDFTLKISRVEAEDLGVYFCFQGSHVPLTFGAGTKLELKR , is 0.09
